experiment: ATG_BRE_CIS: Attagene CIS-FACTORIAL HepG2 Assay for human Bone Morphogenetic Protein (BMP) Response Element (BRE) (AID 2282933); conditions: HepG2 BMP response element reporter, Attagene transcription factor profiling; actives raise or lower the signal
The source made the active and inactive calls. How the source made its calls: active means hit-call score of the fitted dose curve at least 0.9, where 1 is the maximum; inactive means score below 0.9.
// allowed return values: active, inactive

What classification did O=C1CCCC=CCCCCCCCCCC1 end up with in this test? inactive

What classification did CC/C=C\CCOC(=O)CC end up with in this test? inactive

What classification did Cc1c(C2(c3cc(Br)c(O)c(Br)c3C)OS(=O)(=O)c3ccccc32)cc(Br)c(O)c1Br end up with in this test? inactive

What classification did O=C(CC(=O)c1ccccc1)c1ccccc1 end up with in this test? inactive

What classification did ClC(c1ccccc1)(c1ccccc1)c1ccccc1 end up with in this test? inactive

What classification did CS(=O)(=O)c1ccc(C2=C(c3ccccc3)C(=O)OC2)cc1 end up with in this test? inactive

What classification did CCNCCO end up with in this test? inactive

What classification did C1=CC2C3C=CC(C3)C2C1 (configuration not stated) end up with in this test? inactive

What classification did CC1(C)C(=O)N(Cl)C(=O)N1Br end up with in this test? inactive

What classification did c1ccc2cc(Nc3ccc(Nc4ccc5ccccc5c4)cc3)ccc2c1 end up with in this test? inactive

What classification did CC(C)CCOC(=O)c1ccccc1 end up with in this test? inactive

What classification did COc1ccc(CCN2CCC(Nc3nc4ccccc4n3Cc3ccc(F)cc3)CC2)cc1 end up with in this test? inactive

What classification did CCc1ncc(C)[nH]1 end up with in this test? inactive

What classification did Oc1ccc2cc(SSc3ccc4cc(O)ccc4c3)ccc2c1 end up with in this test? active

What classification did Cc1cc(=O)oc2cc(N(C)C)ccc12 end up with in this test? inactive

What classification did CCCCCCCCCCCCN1CCCCCC1=O end up with in this test? active

What classification did C=C[Si]1(C)O[Si](C)(C=C)O[Si](C)(C=C)O[Si](C)(C=C)O1 (configuration not stated) end up with in this test? inactive

What classification did CC(C)(CO)[C@@H](O)C(=O)NCCC(=O)O end up with in this test? inactive

What classification did CC1(C)O[C@@H]2C[C@H]3[C@@H]4CCC5=CC(=O)C=C[C@]5(C)[C@@]4(F)[C@@H](O)C[C@]3(C)[C@]2(C(=O)CO)O1 end up with in this test? inactive

What classification did O=C1OC2(c3ccccc31)c1ccc(O)c(Br)c1Oc1c2ccc(O)c1Br end up with in this test? inactive

What classification did CN1C(=O)c2ccccc2C1=O end up with in this test? inactive

What classification did Cc1c(Cl)cccc1[N+](=O)[O-] end up with in this test? inactive

What classification did CCOC(=O)C1OC1c1ccccc1 (configuration not stated) end up with in this test? inactive

What classification did COc1ccc(N=Nc2cc(C)c(N=Nc3ccc(S(=O)(=O)O)cc3)cc2OC)cc1 end up with in this test? inactive

What classification did CC(C)=CCCC(C)CC(=O)O (configuration not stated) end up with in this test? inactive

What classification did CCCCN(CCCC)C(=O)N(CCCC)CCCC end up with in this test? inactive

What classification did CCCCC(CC)(CO)CO end up with in this test? inactive

What classification did CSCCC=O end up with in this test? inactive

What classification did OCc1cccc(Oc2ccccc2)c1 end up with in this test? inactive

What classification did CCCSc1ccc2nc(NC(=O)OC)[nH]c2c1 end up with in this test? inactive

What classification did O=c1[nH]c(=O)c2cn[nH]c2[nH]1 end up with in this test? inactive

What classification did CC1CC(O)CC(C)(C)C1 (configuration not stated) end up with in this test? inactive

What classification did Cc1ccc(C)o1 end up with in this test? inactive

What classification did C[Si]1(C)O[Si](C)(C)O[Si](C)(C)O1 end up with in this test? inactive

What classification did CC(=O)c1ccccn1 end up with in this test? inactive

What classification did CN(C)c1ccncc1 end up with in this test? inactive

What classification did CC(=O)C1(C)CC2=C(CCCC2(C)C)CC1C (configuration not stated) end up with in this test? inactive

What classification did Cc1cc(C)nc(NS(=O)(=O)c2ccc(N)cc2)n1 end up with in this test? inactive

What classification did C=C(C)[C@H]1CC=C(C)C(=O)C1 end up with in this test? inactive

What classification did CCCCCC(C=O)=Cc1ccccc1 end up with in this test? inactive

What classification did C1CCOC1 end up with in this test? inactive

What classification did CCOC(=O)CC(C)O (configuration not stated) end up with in this test? inactive

What classification did COCCOC(=O)c1ccccc1C(=O)OCCOC end up with in this test? inactive

What classification did C=C(C)[C@@H]1CC=C(C)C(=O)C1 end up with in this test? inactive

What classification did CCOc1ccc(N=Nc2ccc(C=Cc3ccc(N=Nc4ccc(OCC)cc4)cc3S(=O)(=O)O)c(S(=O)(=O)O)c2)cc1 end up with in this test? active

What classification did Cc1ccc(N)c(S(=O)(=O)O)c1 end up with in this test? inactive

What classification did Nc1c(S(=O)(=O)O)cc(Br)c2c1C(=O)c1ccccc1C2=O end up with in this test? inactive

What classification did c1ccc(CN(Cc2ccccc2)Cc2ccccc2)cc1 end up with in this test? inactive

What classification did CCCCOCC end up with in this test? inactive

What classification did [O-]n1ccccc1=S.[O-]n1ccccc1=S.[Zn+2] end up with in this test? inactive

What classification did C=CC(C)(O)CCC=C(C)C (configuration not stated) end up with in this test? inactive

What classification did C=CCN(CC=C)CC=C end up with in this test? inactive

What classification did Cc1cccc(Nc2ccccc2)c1 end up with in this test? inactive

What classification did CCOCCOCCOCC end up with in this test? inactive

What classification did Oc1c(Cl)cc(Cl)c(Cl)c1Cc1c(O)c(Cl)cc(Cl)c1Cl end up with in this test? active

What classification did CCOc1ccccc1O end up with in this test? inactive

What classification did COc1ccc(CCO)cc1 end up with in this test? inactive
